Target Or Test System: the molecule itself
Assay Overview: thioflavin T
Property: binding result

>>> reported("SKTVLTGTKDTVCSGVTGAMNVAKGTIQTGVDT (peptide, UniProt Q96Q06 260-292, looked up) [1mer[260:]]")
"binds"
>>> reported("4x1mer[260:] released from MBP-4x1mer[260:] by TEV protease (domain or fragment, human, UniProt Q96Q06 260-292, looked up) SKTVLTGTKDTVCSGVTGAMNVAKGTIQTGVDTSKTVLTGTKDTVCSGVTGAMNVAKGTIQTGVDTSKTVLTGTKDTVCSGVTGAMNVAKGTIQTGVDTSKTVLTGTKDTVCSGVTGAMNVAKGTIQTGVDT")
"binds"
>>> reported("PLIN4-4mer[326:] (domain or fragment, human, UniProt Q96Q06 326-457, looked up) SKTVLTGTKDTVCSGVTGAMNVAKGTIQTGVDTTKTVLTGTKNTVCSGVTGAVNLAKEAIQGGLDTTKSMVMGTKDTMSTGLTGAANVAKGAMQTGLNTTQNIATGTKDTVCSGVTGAMNLARGTIQTGVDT")
"binds"
